Data origin, for the record: patent US10344077

Athena reading (relative luminescence units) reference
Target: T1, Centromere B (UniProt P07199)
T1 sequence (looked up): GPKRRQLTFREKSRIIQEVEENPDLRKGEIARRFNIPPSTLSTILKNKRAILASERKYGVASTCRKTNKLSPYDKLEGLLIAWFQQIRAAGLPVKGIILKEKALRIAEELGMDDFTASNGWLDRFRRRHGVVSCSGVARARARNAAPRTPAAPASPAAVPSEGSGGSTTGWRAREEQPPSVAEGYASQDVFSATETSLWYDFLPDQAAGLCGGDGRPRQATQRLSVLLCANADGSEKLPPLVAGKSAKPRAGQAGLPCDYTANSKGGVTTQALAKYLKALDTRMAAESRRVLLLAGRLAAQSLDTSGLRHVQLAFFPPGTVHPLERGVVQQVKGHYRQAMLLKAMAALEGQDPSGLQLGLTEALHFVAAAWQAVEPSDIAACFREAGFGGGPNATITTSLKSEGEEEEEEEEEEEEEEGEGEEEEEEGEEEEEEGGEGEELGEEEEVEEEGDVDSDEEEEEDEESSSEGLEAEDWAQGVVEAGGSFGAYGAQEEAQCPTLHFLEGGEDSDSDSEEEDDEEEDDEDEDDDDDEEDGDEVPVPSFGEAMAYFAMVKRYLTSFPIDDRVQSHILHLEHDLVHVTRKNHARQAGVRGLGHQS
Assay: AtheNA, Ab 12.5 ug/ml
Simply state the number, no unit and no words.

Please review the entries below; each comes with its answer.
binder: CH236_4A/293i (antibody, from a related filing, V domains shown) VH: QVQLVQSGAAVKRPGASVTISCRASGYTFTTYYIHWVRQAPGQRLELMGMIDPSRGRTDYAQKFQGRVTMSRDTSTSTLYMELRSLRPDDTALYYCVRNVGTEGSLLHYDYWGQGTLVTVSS VL: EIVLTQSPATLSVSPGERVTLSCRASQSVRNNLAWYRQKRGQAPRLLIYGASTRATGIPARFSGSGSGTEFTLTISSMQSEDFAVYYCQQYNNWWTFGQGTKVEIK
result number: 233
//
binder: CH240_4A/293i (antibody, from a related filing, V domains shown) VH: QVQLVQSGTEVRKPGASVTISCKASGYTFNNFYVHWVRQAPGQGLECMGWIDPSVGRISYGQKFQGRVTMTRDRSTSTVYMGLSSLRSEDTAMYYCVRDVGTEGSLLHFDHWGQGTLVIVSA VL: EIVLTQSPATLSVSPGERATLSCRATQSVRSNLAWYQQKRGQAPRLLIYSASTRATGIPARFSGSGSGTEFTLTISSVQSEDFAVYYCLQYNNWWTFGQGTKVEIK
result number: 15
//
binder: CH239_4A/293i (antibody, from a related filing, V domains shown) VH: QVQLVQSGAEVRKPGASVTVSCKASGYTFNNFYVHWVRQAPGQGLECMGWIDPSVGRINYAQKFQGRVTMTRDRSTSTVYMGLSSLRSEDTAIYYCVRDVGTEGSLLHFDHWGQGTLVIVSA VL: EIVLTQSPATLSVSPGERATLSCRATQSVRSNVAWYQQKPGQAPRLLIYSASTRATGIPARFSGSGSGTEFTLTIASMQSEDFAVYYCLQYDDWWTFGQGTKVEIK
result number: 216

# ---- query binder ----
Athena reading (relative luminescence units) measured on CH241 (antibody, from a related filing, V domains shown) VH: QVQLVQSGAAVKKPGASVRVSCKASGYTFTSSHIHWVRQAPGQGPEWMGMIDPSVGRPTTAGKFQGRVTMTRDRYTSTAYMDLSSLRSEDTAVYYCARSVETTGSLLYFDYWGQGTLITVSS VL: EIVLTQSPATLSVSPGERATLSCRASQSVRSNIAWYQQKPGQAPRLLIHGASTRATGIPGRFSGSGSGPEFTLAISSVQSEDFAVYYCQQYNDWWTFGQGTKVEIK = 8
